test system: A498 renal; assay: NCI tumour cell line growth inhibition, 48 h
// False strictly below 6 µM in TGI; True otherwise

Does the reported TGI for COc1cccc(/C=C/C(=O)N2CC(CCl)c3c2cc(N)c2ccccc32)c1 (configuration not stated) fall at or above the 6 µM mark?
False

Does the molecule O=C(CCl)Nc1ccc(Cc2ccc(NC(=O)CCl)cc2)cc1 have recorded TGI that is 6 µM or more?
True

Reported TGI reaches at least 6 µM for Cn1cc(-c2nc(-c3cn(C)c4ncccc34)cs2)c2ccccc21 ?
True

Assess whether reported TGI for Clc1ccc(N2N=C(c3cccc(Nc4ccncc4)c3)CC2c2ccc(Br)cc2)cc1 (configuration not stated) sits at 6 µM or higher.
False

Is TGI for COC(=O)C(C#N)C1NC(=O)c2ccccc21 (configuration not stated) at or above 6 µM?
True

// inclusive: TGI at least 6 µM? input: N[C@H]1CCN(c2c(F)cc3c(=O)c(C(=O)O)cn4c3c2Oc2c-4ccc3c2ccc2ccccc23)C1
True

Exam item: decide whether the reported TGI for CCOC(=O)c1ccn2c(c1)c(C#N)c1nc3ccccc3nc12 is at least 6 µM.
True

Reported TGI at or above 6 µM? O=Cc1ccc(-c2ccc(S(=O)(=O)O)cc2)o1
True

State whether the measured TGI reaches 6 µM, counting equality as reaching it, for CC[C@]1(Cc2ccc(OC)c(OC)c2)C=[N+]([O-])O[C@H](OCc2ccccc2)[C@@H]1OC(C)=O
True

Determine whether measured TGI meets or exceeds 6 µM for CC(=O)OC(C)c1cc2c(s1)C(=O)c1ccsc1C2=O (configuration not stated)
False

Determine whether this molecule has TGI no lower than 6 µM: CCOC(OC1=C(C#N)CCCC1)C(CC)[Se]c1ccccc1[N+](=O)[O-] (configuration not stated)
True

* * *

system: K-562 leukemia; test: NCI tumour cell line growth inhibition, 48 h; in the data active = GI50 below about 0.43 µM; inactive = the rest
Result category, one only: active, inactive

Record lookup: outcome of this test for OCC1OC(n2cnc3c(NCc4ccco4)ncnc32)C(O)C1O (stereo not drawn) ?
inactive

Assay result, entry CCC(C(=O)[C@@H](C)[C@@H](O)[C@H](C)[C@@H]1O[C@@H]([C@@H](CC)C(=O)ONC(=O)c2ccccc2)CC[C@@H]1C)[C@H]1O[C@]2(C=CC(=O)[C@]3(CC[C@@](C)([C@H]4CC[C@](O)(CC)[C@H](C)O4)O3)O2)[C@H](C)C[C@@H]1C (stereo partly drawn) — outcome?
active

Which outcome was entered for the molecule C/C=C(\C)C(=O)O[C@@H]1C=CC(=O)O[C@H]1CNC(=O)[C@H](C)O in this test?
inactive

Short answer needed: outcome of this test for CCCCNCCCCCNc1cc(OC)cc2cccnc12 ?
inactive

Please let me know the test result on file for COc1ccc2[nH]c3c(O)c(-c4c(C)cc5c([nH]c6ccc(OC)cc65)c4O)c(C)cc3c2c1 .
inactive

So what was the verdict on CCOC(=O)c1ccc(NC(=O)c2cccc(NC3=C(Cl)C(=O)N(Cc4ccccc4)C3=O)c2)cc1 in this test?
inactive

In this assay, the call recorded for O=C(COc1cccc(/C=C2\Oc3ccc4ccccc4c3C2=O)c1)c1ccc([N+](=O)[O-])cc1 was what?
inactive

Assay result, entry Cc1nn(-c2ccccc2)c2nc(C)n(-c3ccc(Br)cc3)c(=O)c12 — outcome?
active

* * *

system: SF-539 CNS; assay: NCI tumour cell line growth inhibition, 48 h
READOUT_LABEL: TGI (µM)
Reply with just the number (in µM).

Sample Cc1ccc(O)c(C(c2cc(C)ccc2O)c2cc([N+](=O)[O-])ccc2O)c1 — what was its TGI?
33.9

So what's the measured TGI for this one? CCC(=C(c1ccc(OCCN2CCCC2)cc1)c1ccc(OCCN2CCCC2)cc1)c1ccc(Cl)cc1
1.05

GET /values?readout=TGI&item= C/C=C1/C(=Cc2[nH]c(C=c3[nH]/c(=C/C4=NC(=O)C(CC)=C4C)c(C)c3CCC(=O)O)c(CCC(=O)O)c2C)NC(=O)C1C (centres undefined)
23

Given the entry CN(C)C/C=C/C(=O)Nc1cc2c(Nc3cccc(Cl)c3F)ncnc2cc1OCCOC(F)F , report its measured TGI.
5.59

Would you mind telling me what TGI value was observed for N/C(=N/S(=O)(=O)c1cc(C(=O)Nc2ccc(F)cc2)c(Cl)cc1SCc1ccccc1)Nc1ccccc1O ?
4.23

Requested field: TGI. Item: CC1OC(CC2C=CCc3c(O)c4c(c(O)c32)C(=O)c2ccccc2C4=O)CC(NC(=O)C(F)(F)F)C1O (centres undefined)
15

What value of TGI has been reported for the following compound? CC(=O)c1ccc(Oc2c3ccccc3nc3occc23)cc1
8.41

Requested field: TGI. Item: CCC(C(=O)[C@@H](C)[C@@H](O)[C@H](C)[C@@H]1O[C@@H]([C@@H](CC)C(=O)ONC(=O)c2ccccc2)CC[C@@H]1C)[C@H]1O[C@]2(C=CC(=O)[C@]3(CC[C@@](C)([C@H]4CC[C@](O)(CC)[C@H](C)O4)O3)O2)[C@H](C)C[C@@H]1C (some centres undefined)
1.71

Which TGI is reported for this compound? C[C@]12CC[C@H](O)CC1=CC[C@@H]1[C@@H]2CC[C@]2(C)NC(=O)/C(=C\c3ccccc3)C[C@@H]12
30.2

Field request: TGI | item: Cc1cc(OCc2nn(CN3CCN(C)CC3)c(=S)n2/N=C/c2ccc(F)cc2)ccc1Cl
40.1

For the compound CCOC(=O)c1cc2c(n1Cc1ccccc1OC)-c1oncc1CCC2 , what TGI is on record?
8.57

Report TGI for C(=C\c1ccc(OCC2CO2)cc1)/C1=NCOC1 (centres undefined) please.
25.8

I have this compound here, Cc1nn(-c2ccccc2)c2nc(C)n(-c3ccc(Br)cc3)c(=O)c12 , and I need its recorded TGI.
7.09

Recorded TGI of C/C=C(\C)C(=O)O[C@@H]1C=CC(=O)O[C@H]1CNC(=O)[C@H](C)O , please.
57.5

Which TGI is reported for this compound? CCOC(=O)C1=NNC(C(=O)c2ccccc2)C1c1ccccc1 (centres undefined)
4.76

Which measured TGI value corresponds to COC(=O)/C(C#N)=C/c1cc(C(C)(C)C)c(O)c(C(C)(C)C)c1 ?
11

Value lookup for TGI; key = COc1ccc(NC(=O)c2cccc(C3CCc4c(cc(OC)c(OC)c4OC)O3)c2)cc1 (centres undefined)
7.01

Consider the compound Nc1cc(N)c2nc(-c3ccccc3)c(NCc3ccc(Cl)c(Cl)c3)nc2c1 and give its measured TGI.
18.8

* * *

system: HT29 colon; experiment: NCI tumour cell line growth inhibition, 48 h
READOUT_LABEL: TGI

Quick check: TGI of N#CC(C#N)=Cn1c(=S)[nH]c2ccc([N+](=O)[O-])cc21 ?
> 100 µM

So what's the measured TGI for this one? CCCCCC(/C=C/c1ncccc1OCCCCCC(=O)O)=N\NC1=NCCN1
> 100 µM

Which TGI value is on record for Cc1ccc(NC(=O)CCC(=O)C2Cc3ccccc3C2=O)cc1C (stereo not drawn) ?
> 100 µM

* * *

test system: HL-60(TB) leukemia; assay: NCI tumour cell line growth inhibition, 48 h; in the data active = GI50 below about 0.43 µM; inactive = the rest
// one of 1.0 = active, 0.0 = inactive, no free text

Outcome? COc1cccc(-c2nn(-c3ccccc3)cc2-c2ccnc(NCCCNS(=O)(=O)c3ccc(C(F)(F)F)cc3)c2)c1
0.0

I'd appreciate the recorded outcome for CN(C)C/C=C/C(=O)Nc1cc2c(Nc3cccc(Cl)c3F)ncnc2cc1OCCOC(F)F from this test.
0.0

Call for entry Nc1nc(N)c(-c2ccc(Cl)c(Cl)c2)c(CP(Cl)(Cl)(Cl)Br)n1 :
0.0

Name the outcome recorded for CCOC(=O)CCSC1=CC(=O)c2nc3ccccc3c3ccnc1c23 in the assay.
0.0

Please indicate how the test categorized CCC(C(=O)[C@@H](C)[C@@H](O)[C@H](C)[C@@H]1O[C@@H]([C@@H](CC)C(=O)ONC(=O)c2ccccc2)CC[C@@H]1C)[C@H]1O[C@]2(C=CC(=O)[C@]3(CC[C@@](C)([C@H]4CC[C@](O)(CC)[C@H](C)O4)O3)O2)[C@H](C)C[C@@H]1C (stereo not given in full) .
1.0

* * *

Please respond with reported TGI for every item in the list.
tested on: SNB-78 CNS; experiment: NCI tumour cell line growth inhibition, 48 h

Could you share which TGI value was measured for CCOC(=O)CCn1cnc(N)n1 ?
> 100 µM

What value of TGI has been reported for the following compound? C[Si](C)(C)/C=C/CN1C(=O)CCC1=O
> 100 µM

// TGI lookup, key: CN(C)CCNC(=O)c1cccc2c1nc(-c1ccncc1)c1ccccc12
23.2 µM

Using the record for Cn1c(=O)[nH]c2c(c1=O)C(=O)CN2 , report its TGI.
> 100 µM

# TGI lookup, item CC(=O)OCC1OC(n2c(O)c(N=NC(N)=S)c3ccc([N+](=O)[O-])cc32)C(OC(C)=O)C1OC(C)=O (stereo unspecified)
> 100 µM

Give the measured TGI of CCCCCCCCCCCCCCCCCCOCC(O)CO (stereo unspecified) .
> 25 µM
